assay_system: BaF3 BRAF-KIAA1549 fusion cells (Homo sapiens)
Construct: The BRAF-KIAA1549 fusion mutant was subcloned into pMXs-IRES-Blasticidin (RTV-016, Cell Biolabs, San Diego, CA); No tag given; Q9HCM3 (UPF0606 protein KIAA1549)
assay_name: BaF3 BRAF-KIAA1549 fusion cell proliferation assay (CellTiterGlo, 96 hours)
Format: cell-based
condition_context: Table A2
measurement_label: GI50

Before answering, review these 3 worked examples.
Reported GI50, molecule CNc1cc2c(C#N)cc(-c3cc(NC(=O)c4ccnc(C(F)(F)F)c4)ccc3C)cc2cn1 [Compound 273] : ____ 0.1 to 0.5 µM

Reported GI50, molecule CNc1ncc2cc(-c3cc(NC(=O)c4ccnc(C5(F)CC5)c4)ccc3C)cnc2c1C#N [Compound 271] : ____ 0.02 to 0.1 µM

Reported GI50, molecule CNc1cc2ncc(-c3cc(NC(=O)c4cc(C(C)(C)C(N)=O)ccn4)ccc3C)cc2cn1 [Compound 255] : ____ 0.02 to 0.1 µM

Next:
Reported GI50, molecule CNc1cc2ncc(-c3cc(NC(=O)c4cnn(CC(F)(F)F)c4C)cnc3C)cc2cn1 [Compound 240] : ____ ≥ 0.5 µM

Reported GI50, molecule CNc1cc2ncc(-c3cc(NC(=O)c4c[nH]c5c4CC(C)CC5)ccc3C)cc2cn1 (centres unmarked) [Compound 266] : ____ 0.02 to 0.1 µM

====

assay_system: BaF3 BRAF-KIAA1549 fusion cells (Homo sapiens, UniProt P15056)
Construct: The BRAF-KIAA1549 fusion mutant was subcloned into pMXs-IRES-Blasticidin (RTV-016, Cell Biolabs, San Diego, CA); No tag given; Q9HCM3 (UPF0606 protein KIAA1549)
Sequence (P15056 whole entry, change not shown, the tested form may be a part): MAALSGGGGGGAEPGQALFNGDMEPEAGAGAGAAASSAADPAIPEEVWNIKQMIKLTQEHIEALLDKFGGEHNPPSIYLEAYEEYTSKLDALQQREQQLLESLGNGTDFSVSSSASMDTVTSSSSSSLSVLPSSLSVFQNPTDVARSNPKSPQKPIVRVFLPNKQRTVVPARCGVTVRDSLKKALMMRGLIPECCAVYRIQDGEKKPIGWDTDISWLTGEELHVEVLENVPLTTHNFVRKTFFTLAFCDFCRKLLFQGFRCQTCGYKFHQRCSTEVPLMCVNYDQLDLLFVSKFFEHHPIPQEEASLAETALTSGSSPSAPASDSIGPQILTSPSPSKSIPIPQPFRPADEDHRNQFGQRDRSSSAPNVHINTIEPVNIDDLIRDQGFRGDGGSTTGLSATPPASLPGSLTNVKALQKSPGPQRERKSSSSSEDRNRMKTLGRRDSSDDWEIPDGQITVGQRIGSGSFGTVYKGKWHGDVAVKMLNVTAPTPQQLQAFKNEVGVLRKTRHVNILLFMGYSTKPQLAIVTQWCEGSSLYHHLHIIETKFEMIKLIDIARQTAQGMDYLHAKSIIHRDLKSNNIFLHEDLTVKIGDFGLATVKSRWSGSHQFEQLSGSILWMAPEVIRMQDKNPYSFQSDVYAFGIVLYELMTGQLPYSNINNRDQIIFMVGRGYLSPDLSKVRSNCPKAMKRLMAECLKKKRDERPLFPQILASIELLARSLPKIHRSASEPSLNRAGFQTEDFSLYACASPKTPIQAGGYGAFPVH
assay_name: BaF3 BRAF-KIAA1549 fusion cell proliferation assay (CellTiterGlo, 96 hours)
Type: cell-based
condition_context: Table A2
measurement_label: GI50

Reported GI50, compound CNc1cc2ncc(-c3cc(NC(=O)c4noc5c4COCC5)cnc3C)cc2cn1 [Compound 246] : ____ ≥ 500 nM

Reported GI50, compound CNc1cc2ncc(-c3cc(NC(=O)c4cccc5c4CCC5O)cnc3C)cc2cn1 (stereo not shown) [Compound 219] : ____ ≥ 500 nM

Reported GI50, compound CNc1cc2ncc(-c3cc(NC(=O)c4cnc5n4CCCC5)cnc3C)cc2cn1 [Compound 209] : ____ ≥ 500 nM

Reported GI50, compound CNc1cc2ncc(-c3cc(NC(=O)c4csc5c4CCC(C)C5)cnc3C)cc2cn1 (stereo not shown) [Compound 235] : ____ 20 to 100 nM

====

assay_system: BaF3 BRAF-KIAA1549 fusion cells (Homo sapiens)
Construct: The BRAF-KIAA1549 fusion mutant was subcloned into pMXs-IRES-Blasticidin (RTV-016, Cell Biolabs, San Diego, CA); No tag given; Q9HCM3 (UPF0606 protein KIAA1549)
assay_name: BaF3 BRAF-KIAA1549 fusion cell proliferation assay (CellTiterGlo, 96 hours)
Type: cell-based
condition_context: Table A2
measurement_label: GI50

Reported GI50, compound Cc1ccc(NC(=O)c2cc(C(C)(C)C#N)ccn2)cc1-c1ccc2c3c(ncc2c1)NC(=O)C3 : ____ 0.02 to 0.1 µM

====

assay_system: BaF3 BRAF-KIAA1549 fusion cells (Homo sapiens)
Construct: The BRAF-KIAA1549 fusion mutant was subcloned into pMXs-IRES-Blasticidin (RTV-016, Cell Biolabs, San Diego, CA); No tag given; Q9HCM3 (UPF0606 protein KIAA1549)
assay_name: BaF3 BRAF-KIAA1549 fusion cell proliferation assay (CellTiterGlo, 96 hours)
Type: cell-based
condition_context: Table A2
Measured GI50, listed per entry.

Reported GI50, molecule CNc1cc2ncc(-c3cc(NC(=O)c4noc5c4C[C@H](C)CC5)ccc3C)cc2cn1 (single isomer, unassigned) : ____ 20 to 100 nM

Where these numbers come from: patent US20250017914A1
